- Test system: mushroom tyrosinase
- assay notes: Diphenolase
- Type: biochemical
- experimental setup: diphenolase activity
quantity: Inhibition type

>>> result("O=C(O)c1cccnc1")
"competitive"
>>> result("Nc1ccccc1C(=O)O")
"noncompetitive"
>>> result("Nc1ccc(C(=O)O)cc1")
"noncompetitive"
>>> result("O=C(O)c1ccccn1")
"competitive"
